Reference for the values: the array DNA melting data of Ke et al. (doi:10.1101/2024.01.08.574731)

Below: a set of entries, each annotated with reported Tm.
run_description: melting temperature; fluorescence melt of hairpins on a sequencing array, two-state fit, raised by 9.35 °C to match UV melts
measurement_context: sodium 0.088 M
measured_endpoint: Tm (°C)

GCTTAATCGAAAGATAGC (((..(((....)))))) | 30.8
GGTTCCGAAAGGATCACC ((((((....)))..))) | 33.1
GCCACCTCGAAAGAGGGC (((..(((....)))))) | 44.5
GACGGCGAAAGCCGTGTC ((((((....)))..))) | 63.9
GCGGTGAGCCGC ((((....)))) | 66.8
GGCGGGACGAAAGTCGCC (((..(((....)))))) | 59.5
GATCGTATTCACGATC ((((((....)))))) | 55.1
CGTGCGGAAACGCGTACG ((((((....)))..))) | 48.6
GCTACGCGAAAGCTTAGC ((((.((....)).)))) | 55.4
GGTTGTGGAAACACGATC (.(.(((....))).).) | 34
GATCAGACGCCTGATC ((((((....)))))) | 50
GGGGGAGGAAACTCTCCC (((.(((....))).))) | 52.7
GCTGTCCGAAAGGATAGC (((.(((....))).))) | 59.3
GGTCGTGAAAACGACC ((((((....)))))) | 69.2
GGGTCCGAAAGGAGCCCC ((((((....)))..))) | 66.4
GGCGCAGGAAACCGCGCC (((((.(....).))))) | 68.8
GACAGTGGAAACACCGTC (((.(((....))).))) | 39.6
GGACACCGAAAGGTCTCC (((.(((....))).))) | 40
GCAGAGGAAACTCTGC ((((((....)))))) | 65.8
GTCACCGAAAGGTGTGAC ((((((....)))..))) | 42.4
GTTAGGGGAAACCCTAGC (.(((((....))))).) | 40.7
GCGTCCGGAAACGGACAC (.(((((....))))).) | 51
GCATTAACGAAAGTTTGC (((..(((....)))))) | 33.6
GATCTGTACACAGATC ((((((....)))))) | 54.6
GATATGAAAATATC (((((....))))) | 35.7

====

run_description: melting temperature; fluorescence melt of hairpins on a sequencing array, two-state fit, raised by 9.35 °C to match UV melts
measurement_context: sodium 0.088 M
Each entry gets criterion not met if its Tm stays under 50 °C, and criterion met if its Tm is 50 °C or above.

GTCTCCGAAAGGAGCGAC ((((((....)))..))) | criterion met
GATCGGGCAGCCGATC ((((((....)))))) | criterion met
GCCGTTGGAAACAGTGGC (((..((....))..))) | criterion not met
GGATACCGAAAGGTCTCC (((.(((....))).))) | criterion not met
GATCACAGAAGTGATC ((((((....)))))) | criterion met
GATCGCGTGTGCGATC ((((((....)))))) | criterion met

====

# folding enthalpy per record follows
run_description: folding enthalpy; higher = less favourable; fluorescence melt of hairpins on a sequencing array, two-state fit
measurement_context: sodium 0.088 M
measured_endpoint: folding enthalpy (kcal/mol)

GGATTGCGAAAGCATCC (((.(((....)))))) | -20.8
GGTGCGACGAAAGTCACC (((..(((....)))))) | -16.5
GCCAAAGAAATTTGGC ((((((....)))))) | -34.6
GAGTTACCGAAAGGTCTC (((..(((....)))))) | -16.9
GGTCGGCCGAAAGGCACC (((..(((....)))))) | -10.9
CGCGGAAAACTCCGCG ((((((....)))))) | -38.9
GAGTAAGGAAACTCACTC ((((.((....)).)))) | -14.8
GGAGCCGAAAGGCATTCC ((((((....)))..))) | -10.3
GCGGTGCGAAAGCCGCGC (((..((....))..))) | -27.7
GTTAAAGGAAACTTTAAC (((((((....))))))) | -34.6
GAATAGGCGAAAGCCTTC (((..(((....)))))) | -8.6
GTGGTTGGAAACAATCGC (.(.(((....))).).) | -23.3
GCGAGAAATCGC ((((....)))) | -21.5
GCGGGTGGAAACGCCTGC ((.((.(....).)).)) | -28
GTGTACGGAAACGTACAC (((((((....))))))) | -33.6
GACTGCGAAAGCAGGGTC ((((((....)))..))) | -12.4
GATCGACGTATCGATC ((((((....)))))) | -56.4
GATCGTTATGACGATC ((((((....)))))) | -38.6
GAAGACGAAAGTCTTC ((((((....)))))) | -37.7
GGATAAACGAAAGTTTCC (((..(((....)))))) | -17.1
GCACCCGAAAGGGCGTGC ((((((....)))..))) | -29.6
GAATCCGAAAGGAACTTC ((((((....)))..))) | -13.1
GCAATGGGAAACCATTAC (.(((((....))))).) | -14.9
GGTGAAGGAAACCTCACC (((((.(....).))))) | -29.6
GAAACCGAAAGGTTCTTC ((((((....)))..))) | -22.5
GGCGGTGGAAACACTGCC (((.(((....))).))) | -47.3
GGTGTTGGAAACGACACC (((((.(....).))))) | -50.3
GTCAAGCGAAAGCTCGAC (((.(((....))).))) | -30.3
GGTTGGGCGAAAGCCACC (((..(((....)))))) | -12.7
GGCGGCGAAAGCCGTGCC ((((((....)))..))) | -10.1
GTCAAAGGAAACTTTGAC (((((((....))))))) | -44.9
GATGACGAAAGTCAGATC ((((((....)))..))) | -17.8
GCAGTACGAAAGTAGTGC (((.(((....))).))) | -47
GATCCTTTCCAGGATC ((((((....)))))) | -46.1
GTGCGCGAAAGCGACCAC ((((((....)))..))) | -10.4
GCACGTACGAAAGTATGC (((..(((....)))))) | -16
GGCGGGACGAAAGTCGCC (((..(((....)))))) | -28.6
GCAAGCGGAAACGCTCGC ((.((((....)))).)) | -22.6
GCCTTTGGAAACAAAGGC (((((((....))))))) | -38.4
GCTATGCGAAAGCACTGC ((..(((....)))..)) | -15.3
GCTGTCGGAAACGGTAGC (((..((....))..))) | -28.9
GATCGGACCGCCGATC ((((((....)))))) | -39.9
GTACGTGGAAACATGTAC ((((.((....)).)))) | -34.1
GCCAGGCGAAAGCGTAGC ((.(.((....)).).)) | -7.64
GGTTATACGAAAGTAACC (((..(((....)))))) | -14.7
GGGTGGGGAAACCTGCCC (((..((....))..))) | -25.5
GATCGACGCTTCGATC ((((((....)))))) | -40.6
GTAAGCGAAAGCTGTTAC ((((((....)))..))) | -9.91
GACATGCGAAAGCACGTC (((.(((....))).))) | -26.3
GGCCAGGGAAACCTGGTC (.(((((....))))).) | -33.5

====

run_description: folding enthalpy; higher = less favourable; fluorescence melt of hairpins on a sequencing array, two-state fit
measurement_context: sodium 0.088 M
# maps each entry to its folding enthalpy
measured_endpoint: folding enthalpy

GTGCGCCCGAAAGGGCAC (((..(((....)))))) | -10.4 kcal/mol
GATCCTGGGGAGGATC ((((((....)))))) | -36.8 kcal/mol
GATCAAGCCATTGATC ((((((....)))))) | -48.9 kcal/mol
GATCATGGGATGATC ((((((...)))))) | -30.7 kcal/mol
GATCTATGCCTAGATC ((((((....)))))) | -33.3 kcal/mol
GACGACGAAAGTCTCGTC ((((((....)))..))) | -17.1 kcal/mol
GCAATCGAAAGATTGC ((((((....)))))) | -42.2 kcal/mol
GAACACGGAAACGTGTCC (.(((((....))))).) | -11.2 kcal/mol
GCTCATCCGAAAGGAAGC (((..(((....)))))) | -11.2 kcal/mol
GATCATAATGATGATC ((((((....)))))) | -29.9 kcal/mol
GCCTAGCGAAAGCCGGGC (((..((....))..))) | -20.1 kcal/mol
GAGGTGGCGAAAGCCCTC (((..(((....)))))) | -14.4 kcal/mol
